Hey, just so you know, these numbers are from the supplement of paper PMC11208160.

Assay: recombinant UMI read abundance after kanamycin selection (control-corrected) (log10(CPM+1)); higher = more efficient recombination; extreme values may be limits of the assay; sequences stand for … in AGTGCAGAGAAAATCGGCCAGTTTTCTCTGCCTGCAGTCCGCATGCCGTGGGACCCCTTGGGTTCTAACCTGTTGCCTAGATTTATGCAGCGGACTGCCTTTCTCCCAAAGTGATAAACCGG…AGGTTGGTTTCACT; site = the 11-nt donor;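 also: IS621 bridge recombinase in Escherichia coli cells against a fixed T5 target plasmid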
Measurement kind: recombinant UMI read abundance (log10)
Simply state the number, no unit and no words.

So what's the measured recombinant UMI read abundance (log10) for this one? TAGCTAGCATGGACCGGTTTTCCCGGTAATCCGTATTTGAA (site TAGCTAGCTCT)
0.00536

Give the measured recombinant UMI read abundance (log10) of CCACGTGCATGGACCGGTTTTCCCGGTAATCCGTATTTGAT (site CCATGTGCTAT) .
0.0143

Query (sequence): GCGACGCCATGGACCGGTTTTCCCGGTAATCCGTATTTGGG (site GCGAGGCCTCC) ; field requested: recombinant UMI read abundance (log10)
0.0192

Name the reported recombinant UMI read abundance (log10) value associated with the sequence AGGCTTTCATGGACCGGTTTTCCCGGTAATCCGTATTTGAC (site AGCCTTTCTGT)
0.212

Look up recombinant UMI read abundance (log10): AGTGTCTCATGGACCGGTTTTCCCGGTAATCCGTATTTGCA (site AGTGTCTCTTG)
3.07

# lookup: recombinant UMI read abundance (log10) of CTAGTTGCATGGACCGGTTTTCCCGGTAATCCGTATTTGAC (site CTAGTTGCTGT)
2.24

What measured recombinant UMI read abundance (log10) goes with TCAGCTGCATGGACCGGTTTTCCCGGTAATCCGTATTTGTG (site TAAGCTGCTCA) ?
0.0147

recombinant UMI read abundance (log10) lookup needed for TGAGATACATGGACCGGTTTTCCCGGTAATCCGTATTTGAG (site TGAGATACTCT) , thanks.
2.26

I'd like to know its recombinant UMI read abundance (log10). The sequence in question is CGAGTCACATGGACCGGTTTTCCCGGTAATCCGTATTTGGG (site CGAGTCACTCC)
0.184
